- System: MDA-MB-468 breast
- test: NCI tumour cell line growth inhibition, 48 h
assay_metric: TGI (µM)
Respond numerically; units are µM and should not be typed.

Assign TGI to the following record: O=C(/C(=C\c1ccc([N+](=O)[O-])cc1)S(=O)Cc1ccc(F)cc1)c1ccc(F)cc1 (stereo not given) 4.36

Assign TGI to the following record: COc1ccc(C(=O)c2cc(OC)c(OC)c(OC)c2)cc1/C=C/C(=O)c1ccc(OC)c(OC)c1 77.7

Assign TGI to the following record: c1cc2[nH]ncc2cc1-c1nc2ccc3[nH]ncc3c2c2c1CCCC2 3.16

Assign TGI to the following record: Clc1ccc2c(c1)N(CCCN1CCCC1)c1ccccc1S2 8.05
